System: K. pneumoniae ATCC 700603
Format: cell-based, Klebsiella pneumoniae
Details: ATCC 700603, 18 h
Protocol: The Acinetobacter baumannii ATCC BAA-1605, Candida albicans ATCC 10231, Enterococcus faecium ATCC 700221, Klebsiella aerogenes ATCC 13048 (previously known as Enterobacter aerogenes), Klebsiella pneumoniae ATCC 700603, Pseudomonas aeruginosa ATCC 9027, Staphylococcus aureus ATCC 25923 and MRSA ATCC 33591, were acquired from the American Type Culture Collection (ATCC). […] The MICs were determined by broth microdilution method according to the Clinical and Laboratory Standard Institute guidelines. […]
Residues, ends and D or L forms follow the SMILES beside them.
Quantity Measured: MIC K (µg/mL)

a: CCCCCCCCCCCCCC(=O)N[C@H](C(=O)N[C@@H](CCCNC(=N)N)C(=O)N[C@@H](CCCNC(=N)N)C(N)=O)[C@@H](C)O [compound 90, C14-TRR-NH2] (HELM PEPTIDE1{[CCCCCCCCCCCCCC(=O)[*:2]].T.R.R.[am]}$$$$V2.0)
b: CCCCCCCCCCCCCCCC(=O)N[C@@H](CCCNC(=N)N)C(=O)N[C@@H](CCCNC(=N)N)C(N)=O [compound 5, C16-RR-NH2, reference compound] (HELM PEPTIDE1{[CCCCCCCCCCCCCCCC(=O)[*:2]].R.R.[am]}$$$$V2.0)
**Q:** Of the pair a and b , name the member with the lesser recorded MIC K. Lab log: write the label of the selected item as the result.
**A:** b

###

experiment: Determination of peptide hydrophobicity with RP-HPLC (adjusted retention time); format: physicochemical; conditions: Table 3; adjusted retention time as hydrophobicity; RP-HPLC C18, linear 10–55% acetonitrile over 60 min, 0.1% TFA, 25.0 °C, UV 214 nm, triplicate
Residues, ends and D or L forms follow the SMILES beside them.
Quantity Measured: tR’ (min)

Compound: CCCCCCCCCCCC(=O)N[C@@H](Cc1ccc(O)cc1)C(=O)N[C@@H](CCCNC(=N)N)C(=O)N[C@@H](CCCNC(=N)N)C(N)=O [compound 101, C12-YRR-NH2] (HELM PEPTIDE1{[CCCCCCCCCCCC(=O)[*:2]].Y.R.R.[am]}$$$$V2.0)
Recorded Value: 36.17
--
Compound: CCCCCCCCCCCCCC(=O)N1CCC[C@H]1C(=O)N[C@@H](CCCNC(=N)N)C(=O)N[C@@H](CCCNC(=N)N)C(N)=O
Recorded Value: 42.61
--
Compound: CCCCCCCCCCCCCC(=O)N[C@@H](CCCNC(=N)N)C(=O)N[C@@H](CCCNC(=N)N)C(=O)N[C@@H](CCCNC(=N)N)C(N)=O [compound 82, C14-RRR-NH2] (HELM PEPTIDE1{[CCCCCCCCCCCCCC(=O)[*:2]].R.R.R.[am]}$$$$V2.0)
Recorded Value: 36.76
--
Compound: CCCCCCCCCCCCCC(=O)N[C@@H](CCS(C)(=O)=O)C(=O)N[C@@H](CCCNC(=N)N)C(=O)N[C@@H](CCCNC(=N)N)C(N)=O [compound 58, C14-M(O2)RR-NH2] (HELM PEPTIDE1{[CCCCCCCCCCCCCC(=O)[*:2]].[CS(=O)(=O)CC[C@H](N[*:1])C(=O)[*:2]].R.R.[am]}$$$$V2.0)
Recorded Value: 41.17
--
Compound: CCCCCCCCCCCCCC(=O)N[C@@H](Cc1c[nH]cn1)C(=O)N[C@@H](CCCNC(=N)N)C(=O)N[C@@H](CCCNC(=N)N)C(N)=O [compound 34, C14-HRR-NH2] (HELM PEPTIDE1{[CCCCCCCCCCCCCC(=O)[*:2]].H.R.R.[am]}$$$$V2.0)
Recorded Value: 35.80
--
Compound: CCCCCCCCCCCC(=O)N[C@@H](Cc1c[nH]c2ccccc12)C(=O)N[C@@H](CCCNC(=N)N)C(=O)N[C@@H](CCCNC(=N)N)C(N)=O [compound 97, C12-WRR-NH2] (HELM PEPTIDE1{[CCCCCCCCCCCC(=O)[*:2]].W.R.R.[am]}$$$$V2.0)
Recorded Value: 40.79
--
Compound: CCCCCCCCCCCCCC(=O)N[C@H](C(=O)N[C@@H](CCCNC(=N)N)C(=O)N[C@@H](CCCNC(=N)N)C(N)=O)[C@@H](C)O [compound 90, C14-TRR-NH2] (HELM PEPTIDE1{[CCCCCCCCCCCCCC(=O)[*:2]].T.R.R.[am]}$$$$V2.0)
Recorded Value: 40.80
--
Compound: CCCCCCCCCCCC(=O)N1CCC[C@H]1C(=O)N[C@@H](CCCNC(=N)N)C(=O)N[C@@H](CCCNC(=N)N)C(N)=O
Recorded Value: 35.82

###

tested on: K. pneumoniae ATCC 700603; assay type: cell-based, Klebsiella pneumoniae; settings: ATCC 700603, 18 h
Residues, ends and D or L forms follow the SMILES beside them.
Quantity Measured: MIC K (µg/mL)

Molecule: CCCCCCCCCCCCCC(=O)N[C@H](C(=O)N[C@@H](CCCNC(=N)N)C(=O)N[C@@H](CCCNC(=N)N)C(N)=O)C(C)C [compound 94, C14-VRR-NH2] (HELM PEPTIDE1{[CCCCCCCCCCCCCC(=O)[*:2]].V.R.R.[am]}$$$$V2.0)
Unit Of Measure: µg/mL
MIC K: 128

Molecule: CCCCCCCCCCCC(=O)N[C@@H](Cc1ccc(O)cc1)C(=O)N[C@@H](CCCNC(=N)N)C(=O)N[C@@H](CCCNC(=N)N)C(N)=O [compound 101, C12-YRR-NH2] (HELM PEPTIDE1{[CCCCCCCCCCCC(=O)[*:2]].Y.R.R.[am]}$$$$V2.0)
Unit Of Measure: µg/mL
MIC K: 128

Molecule: CCCCCCCCCCCCCC(=O)N[C@@H](CCC)C(=O)N[C@@H](CCCNC(=N)N)C(=O)N[C@@H](CCCNC(=N)N)C(N)=O [compound 70, C14-NvaRR-NH2] (HELM PEPTIDE1{[CCCCCCCCCCCCCC(=O)[*:2]].[Nva].R.R.[am]}$$$$V2.0)
Unit Of Measure: µg/mL
MIC K: 128

###

experiment: Determination of peptide hydrophobicity with RP-HPLC (adjusted retention time); format: physicochemical; conditions: Table 1 and b9; measure of hydrophobicity; RP-HPLC, Phenomenex Luna C18(2) 3.0 × 100 mm, 5 µm, linear 10–55% acetonitrile in water over 60 min, 0.1% TFA, 0.5 mL/min, 25.0 °C, UV 214 nm, peptide 1 g/L, triplicate
Residues, ends and D or L forms follow the SMILES beside them.
Quantity Measured: tR’ (adjusted retention time) (min)

Molecule: CCCCCCCCCCCC(=O)N[C@@H](Cc1ccccc1)C(=O)N[C@@H](CCCNC(=N)N)C(=O)N[C@@H](CCCNC(=N)N)C(N)=O [compound 25, C12-FRR-NH2] (HELM PEPTIDE1{[CCCCCCCCCCCC(=O)[*:2]].F.R.R.[am]}$$$$V2.0)
Unit Of Measure: min
Recorded Value: 41.45

Molecule: CCCCCCCCCCCC(=O)N[C@@H](CCCNC(=N)N)C(=O)N[C@@H](CCCNC(=N)N)C(=O)N[C@@H](Cc1ccccc1)C(N)=O [compound 109, C12-RRF-NH2] (HELM PEPTIDE1{[CCCCCCCCCCCC(=O)[*:2]].R.R.F.[am]}$$$$V2.0)
Unit Of Measure: min
Recorded Value: 38.02

Molecule: CCCCCCCCCC(=O)N[C@@H](CCCNC(=N)N)C(=O)N[C@@H](Cc1ccccc1)C(=O)N[C@@H](CCCNC(=N)N)C(N)=O [compound 106, C10-RFR-NH2] (HELM PEPTIDE1{[CCCCCCCCCC(=O)[*:2]].R.F.R.[am]}$$$$V2.0)
Unit Of Measure: min
Recorded Value: 31.44

Molecule: CCCCCCCCCC(=O)N[C@@H](CCCNC(=N)N)C(=O)N[C@@H](CCCNC(=N)N)C(=O)N[C@@H](Cc1ccccc1)C(N)=O [compound 108, C10-RRF-NH2] (HELM PEPTIDE1{[CCCCCCCCCC(=O)[*:2]].R.R.F.[am]}$$$$V2.0)
Unit Of Measure: min
Recorded Value: 31.07

###

system: A. baumannii ATCC BAA-1605; type: cell-based, Acinetobacter baumannii; details: ATCC BAA-1605, 18 h
Residues, ends and D or L forms follow the SMILES beside them. *: point of attachment. Myristoyl = CCCCCCCCCCCCCC(=O)*; Acm = CC(=O)NC*
Quantity Measured: MIC A (µg/mL)

Molecule: CCCCCCCCCCCCCC(=O)N[C@@H](CCC)C(=O)N[C@@H](CCCNC(=N)N)C(=O)N[C@@H](CCCNC(=N)N)C(N)=O [compound 70, C14-NvaRR-NH2] (HELM PEPTIDE1{[CCCCCCCCCCCCCC(=O)[*:2]].[Nva].R.R.[am]}$$$$V2.0)
Tested System: A. baumannii ATCC BAA-1605
Unit Of Measure: µg/mL
Recorded Value: 64
--
Molecule: CCCCCCCCCCCCCC(=O)N[C@@H](Cc1c[nH]cn1)C(=O)N[C@@H](CCCNC(=N)N)C(=O)N[C@@H](CCCNC(=N)N)C(N)=O [compound 34, C14-HRR-NH2] (HELM PEPTIDE1{[CCCCCCCCCCCCCC(=O)[*:2]].H.R.R.[am]}$$$$V2.0)
Tested System: A. baumannii ATCC BAA-1605
Unit Of Measure: µg/mL
Recorded Value: 128
--
Molecule: CCCCCCCCCC(=O)N[C@@H](Cc1c[nH]c2ccccc12)C(=O)N[C@@H](CCCNC(=N)N)C(=O)N[C@@H](CCCNC(=N)N)C(N)=O [compound 96, C10-WRR-NH2] (HELM PEPTIDE1{[CCCCCCCCCC(=O)[*:2]].W.R.R.[am]}$$$$V2.0)
Tested System: A. baumannii ATCC BAA-1605
Unit Of Measure: µg/mL
Recorded Value: 64
--
Molecule: CCCCCCCCCCCC(=O)N[C@@H](CCC)C(=O)N[C@@H](CCCNC(=N)N)C(=O)N[C@@H](CCCNC(=N)N)C(N)=O [compound 69, C12-NvaRR-NH2] (HELM PEPTIDE1{[CCCCCCCCCCCC(=O)[*:2]].[Nva].R.R.[am]}$$$$V2.0)
Tested System: A. baumannii ATCC BAA-1605
Unit Of Measure: µg/mL
Recorded Value: 64

I: CCCCCCCCCCCC(=O)N[C@@H](CCCNC(=N)N)C(=O)N[C@@H](CCCNC(=N)N)C(=O)N[C@@H](CCCNC(=N)N)C(N)=O [compound 81, C12-RRR-NH2] (HELM PEPTIDE1{[CCCCCCCCCCCC(=O)[*:2]].R.R.R.[am]}$$$$V2.0)
II: CCCCCCCCCCCC(=O)N[C@@H](CC(C)C)C(=O)N[C@@H](CCCNC(=N)N)C(=O)N[C@@H](CCCNC(=N)N)C(N)=O [compound 45, C12-LRR-NH2] (HELM PEPTIDE1{[CCCCCCCCCCCC(=O)[*:2]].L.R.R.[am]}$$$$V2.0)
III: CCCCCCCCCCCCCC(=O)N[C@@H](Cc1c[nH]c2ccccc12)C(=O)N[C@@H](CCCNC(=N)N)C(=O)N[C@@H](CCCNC(=N)N)C(N)=O [compound 98, C14-WRR-NH2] (HELM PEPTIDE1{[CCCCCCCCCCCCCC(=O)[*:2]].W.R.R.[am]}$$$$V2.0)
IV: CCCCCCCCCCCCCC(=O)N[C@@H](CC(N)=O)C(=O)N[C@@H](CCCNC(=N)N)C(=O)N[C@@H](CCCNC(=N)N)C(N)=O [compound 62, C14-NRR-NH2] (HELM PEPTIDE1{[CCCCCCCCCCCCCC(=O)[*:2]].N.R.R.[am]}$$$$V2.0)
V: CCCCCCCCCCCCCC(=O)N[C@@H](CSCNC(C)=O)C(=O)N[C@@H](CCCNC(=N)N)C(=O)N[C@@H](CCCNC(=N)N)C(N)=O [compound 14, C14-C(Acm)RR-NH2] (Myristoyl-Cys(Acm)-Arg-Arg-NH2)
**Q:** List items by MIC A in falling order. I would appreciate it if you listed the labels in the requested order.
**A:** I, III, II, IV, V
(I: 256 µg/mL, III: 128 µg/mL, II: 64 µg/mL, IV: 32 µg/mL, V: 16 µg/mL)

a: CCCCCCCCCCCC(=O)N[C@@H](CCCNC(=N)N)C(=O)N[C@@H](CCCNC(=N)N)C(N)=O [compound 3, C12-RR-NH2, reference compound] (HELM PEPTIDE1{[CCCCCCCCCCCC(=O)[*:2]].R.R.[am]}$$$$V2.0)
b: CCCCCCCCCC(=O)N[C@@H](Cc1ccccc1)C(=O)N[C@@H](CCCNC(=N)N)C(=O)N[C@@H](CCCNC(=N)N)C(N)=O [compound 24, C10-FRR-NH2] (HELM PEPTIDE1{[CCCCCCCCCC(=O)[*:2]].F.R.R.[am]}$$$$V2.0)
**Q:** Of the pair a and b , name the member with the lesser recorded MIC A. Lab log: write the label of the selected item as the result.
**A:** b
(b: 64 µg/mL, a: 256 µg/mL)
